Test system: E coli wild type
Assay: MIC by broth microdilution, wild type E coli
Assay type: cell-based
Details: Escherichia coli, engineered strain pH430 WT; Table 2 (Example 4); read-out: MIC pH430 E. coli WT
endpoint.label: MIC (µg/mL)
Write it as a number; the unit µg/mL goes unstated.

**Q:** # get_value(readout= MIC, system= E coli wild type) for NCC1OC(OC2C(N)CC(N)C(O)C2OC2OC(CNC=O)C(O)C2O)C(N)C(O)C1O (stereo not drawn)
**A:** 4

**Q:** # get_value(readout= MIC, system= E coli wild type) for NC[C@H]1O[C@H](O[C@H]2[C@H](O[C@@H]3O[C@H](CO)[C@@H](O)[C@H]3O)[C@@H](O)[C@H](N)C[C@@H]2N)[C@H](N)[C@@H](O)[C@@H]1O [Ribostamycin, ribostamycin, reference compound]
**A:** 2
